# Tested on: HL-1
# protocol summary: relative cell viability (CellTiter-Glo) vs DMSO control (% of DMSO control); higher = more viable cells
# measurement context: oxygen condition: normoxia 72 h; 1000 nM
Where a name gives a salt, the structure may show the parent alone.
observation type: relative cell viability
Give bare numbers.

| compound | relative cell viability |
| --- | --- |
| Cl.N=C(N)NCCC[C@H](N)C(=O)O [L-Arginine HCl] | 108 |
| Nc1nc2[nH]cnc2c(=S)[nH]1 | 64 |
| O=c1[nH]c(=O)n([C@H]2C[C@H](O)[C@@H](CO)O2)cc1F | 28.6 |
| CC/C(=C(/CC)c1ccc(O)cc1)c1ccc(O)cc1 | 108 |
| Nc1nc2ccc(OC(F)(F)F)cc2s1 | 107 |
| CC1(C)S[C@@H]2[C@H](NC(=O)[C@H](N)c3ccc(O)cc3)C(=O)N2[C@H]1C(=O)O | 106 |

With those in mind, consider the next compound.
## Task Report relative cell viability, nothing else, for this compound: CCC[C@@H]1C[C@@H](C(=O)N[C@@H]([C@H]2O[C@H](SC)[C@H](O)[C@@H](O)[C@H]2O)[C@H](C)Cl)N(C)C1 [Clindamycin hydrochloride]
## Result 100
